# TEST_TARGET: Etv1 C416S (human, UniProt P50549 326-429, C416S)
# Sequence (P50549 326-429 C416S): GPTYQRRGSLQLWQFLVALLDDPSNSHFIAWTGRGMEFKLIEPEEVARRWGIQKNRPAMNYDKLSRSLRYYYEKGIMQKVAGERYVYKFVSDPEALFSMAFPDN
# TEST_NAME: EMSA; 2 nM probe; EMSA: 50 mM Tris-HCl pH 7.5, 50 mM NaCl, 2 mM MgCl2, 0.01% Tween 20, 5% glycerol, 1 h at room temperature; proteins reduced with 10 mM TCEP unless stated; 10% native PAGE
# CONDITION_LABEL: protein: recombinant; tags: N-terminal His6 removed by TEV (leaves SM); blunt
pKd: −log10 of the molar value.

| BINDER | pKd |
| --- | --- |
| Etv1ALF/Etv1ALR EMSA probe (dsDNA) DNA 1: ATCTCACCGGAAGTGTAGCA DNA 2: TGCTACACTTCCGGTGAGAT | 9.34 |
